# System: SK-MEL-2
# Assay details: NCI tumour cell line growth inhibition, 48 h
Calls of active or inactive are those of the source. No stated cut-off is given here; in the data, active = GI50 up to about 1.1 µM and inactive = higher.
Measured endpoint: GI50

Illustrative cases are given below, each with its answer.
C/C=C1/CN2CCc3c([nH]c4ccccc34)[C@@H]2C[C@@H]1Cc1nccc2c1[nH]c1cc(O)ccc12 = 2.05 µM (inactive)
CC(C)(C)NC(NC(C)(C)C)=C(/C=C(/Cl)[N+](=O)[O-])[N+](=O)[O-] = > 100 µM (inactive)
CNC(=O)c1cc2nc3ccccc3c(=O)n2c2ccccc12 = > 10 µM (inactive)
O=C1N/C(=N\N=C\c2ccccc2)C(c2ccccc2)O1 (stereo not given) = > 100 µM (inactive)

Ask: Which GI50 value is on record for "NCCCNC(=O)c1csc(NC(=O)c2csc(NC(=O)CCCN)n2)n1" ?
Result: > 100 µM (inactive)

###

# Tested on: SNB-75
# Assay details: NCI tumour cell line growth inhibition, 48 h
Calls of active or inactive are those of the source. Cut-off read from the data, not from the text of the source: active = GI50 up to about 1.1 µM and inactive = higher.
Valid outcomes are listed here; reply with one: TRUE (active), FALSE (inactive)

Worked set:
COC(=O)CC1NC(=O)C1C(C)(OC)OC (stereo not given) = FALSE
O=C(NC(=O)c1cn(CCN2CCN(C(=O)NCCCCCCNC(=O)N3CCN(CCn4cc(C(=O)NC(=O)OCc5ccccc5)c(=O)[nH]c4=O)CC3)CC2)c(=O)[nH]c1=O)OCc1ccccc1 = FALSE
O=C(CCCNc1nc(-c2ccccc2)cs1)c1cccs1 = FALSE
CCCCCCCC[N+](C)(C)Cc1ccc(C[N+](C)(C)CCCCCCCC)cc1 = FALSE
CCOC(=O)NC(=O)c1cn(CCCCCCCCCCC(=O)N2CCN(CCn3cc(C(=O)NC(=O)OCC)c(=O)[nH]c3=O)CC2)c(=O)[nH]c1=O = FALSE

Ask: Just curious, what result did "O=C(O)c1ccccc1/C=N\N=C1NCCN1" get here?
Result: FALSE

Ask: Just curious, what result did CC1(C(=O)O)CCC(C(=O)O)C(C)(C)O1 (stereo not given) get here?
Result: FALSE

Ask: Just curious, what result did CS(=O)(=O)N1CC(CCl)c2ccc([N+](=O)[O-])cc21 (stereo not given) get here?
Result: TRUE

Ask: Just curious, what result did Nc1ncc(Cl)c(NCC2(CO)CC(CCc3ccccc3)C2)n1 (stereo not given) get here?
Result: FALSE

Ask: Just curious, what result did "O=S(=O)(O)C(F)(F)C(F)(F)C(F)(F)C(F)(F)F" get here?
Result: FALSE

###

# Tested on: CAKI-1
# Assay details: NCI tumour cell line growth inhibition, 48 h
Active and inactive are the calls of the source. No stated cut-off is given here; in the data, active = GI50 up to about 1.1 µM and inactive = higher.
Measured endpoint: GI50

Illustrative cases are given below, each with its answer.
O=C(O)CCCNS(=O)(=O)c1ccccc1 = > 100 µM (inactive)
CC1=CC2CCC1(C)C/C2=C(/C)OC=O (stereo not given) = > 100 µM (inactive)
Cc1cc(C)c2c(c1)CC1(Cc3cc(C)c(C)cc3C1=O)C2=O (stereo not given) = > 100 µM (inactive)
NC(Cc1ccc(O)cn1)C(=O)O (stereo not given) = > 100 µM (inactive)
O=C1OCCC12CN(Cc1ccccc1)N=N2 (stereo not given) = 58.7 µM (inactive)

Batch: GI50 for all items listed.
1. O=C(CC(C(=O)c1cccs1)c1ccsc1)c1cccs1 (stereo not given)
2. CC(C)=CCN1CC(C)C(=O)Nc2cc(Cl)ccc21 (stereo not given)

Result:
1: > 100 µM (inactive); 2: 18.5 µM (inactive)

###

# System: K562
# Assay details: NCI tumour cell line growth inhibition, 48 h
The source made the active and inactive calls. Rule as the data show it: active = GI50 up to about 1.1 µM and inactive = higher.
Valid outcomes are listed here; reply with one: TRUE for active, FALSE for inactive

Worked set:
O=C(O)CCSCc1ccc(I)cc1 = FALSE
CCS[C@H]1NC(=O)C1[C@H](C)O[Si](C)(C)C(C)(C)C (some centres not stated) = FALSE
N#CC(C(=O)CCC(=O)Nc1cccc(C(F)(F)F)c1)c1ccccc1 (configuration not stated) = FALSE
CN(C(=O)c1ccccc1)c1ccc2c(c1)C(=O)c1ccccc1C2=O = FALSE
COC(=O)[C@@H]1C=CCN1S(=O)(=O)c1ccc(C)cc1 = FALSE
O=C(Cc1ccccc1)N/N=C1\C(=O)Nc2ccccc21 = FALSE

Ask: Just curious, what result did "CC(=O)c1cc2c(s1)C(=O)c1ccccc1C2=O" get here?
Result: FALSE

Ask: Just curious, what result did "CCn1c(-c2c(Cl)cc(O)cc2Cl)cc2c(Cl)cc(O)cc21" get here?
Result: FALSE

Ask: Just curious, what result did "CCOC(=O)C(CCN1CCC2(CC1)C(=O)N(C)CN2c1ccccc1)C(=O)OCC" get here?
Result: FALSE

Ask: Just curious, what result did COc1cccc2c1C(=O)c1c(O)c3c(c(O)c1C2=O)C[C@@](O)(C(=O)CO)CC3OC1CC(N)C(OC2CCCCO2)C(C)O1 (some centres not stated) get here?
Result: TRUE

Ask: Just curious, what result did "CN(C)CCNC(=O)c1cccc2nc3ccc4cccnc4c3nc12" get here?
Result: TRUE

Ask: Just curious, what result did "CC1(C)CCC[C@]2(C)[C@H]3[C@H](C#N)c4cc(O)c(O)cc4O[C@@]3(C)CC[C@@H]12" get here?
Result: FALSE

Ask: Just curious, what result did "CCOc1cccc2c1N[S@@](=O)S2" get here?
Result: FALSE

Ask: Just curious, what result did "COc1ccc(/C(C)=N/OC(=O)c2c(-c3ccccc3Cl)noc2C)cc1CN1CCOCC1" get here?
Result: FALSE

Ask: Just curious, what result did "C/C(=C1/CCC/C(=C(/C)c2ccccc2)C1=O)c1ccccc1" get here?
Result: FALSE

Ask: Just curious, what result did CCc1cc(Cc2cc(Cl)c(NC(=O)C(=O)C3NC(=O)NC3=O)c(CC)c2)cc(Cl)c1NC(=O)C(=O)C1NC(=O)NC1=O (configuration not stated) get here?
Result: FALSE

Ask: Just curious, what result did CC1=CC2CCC1(C)C/C2=C(/C)OC=O (configuration not stated) get here?
Result: FALSE

###

Would you mind telling me the reported GI50 of each entry?
# System: NCI-H460
# Assay details: NCI tumour cell line growth inhibition, 48 h
Active and inactive are the calls of the source. No stated cut-off is given here; in the data, active = GI50 up to about 1.1 µM and inactive = higher.

Illustrative cases are given below, each with its answer.
COc1ccc(/C=N/N2C(=O)c3c(N)c(C#N)c(-c4ccccc4)c(-c4ccccc4)c3C2=O)cc1 = > 100 µM (inactive)
CC(=O)C(CN1CCOCC1)C(c1ccccc1)c1c(O)c2ccccc2oc1=O (stereo not given) = > 100 µM (inactive)
Cc1ccc(S(=O)(=O)ON2C(=O)c3cccc4cc([N+](=O)[O-])cc(c34)C2=O)cc1 = 19.6 µM (inactive)
Cc1cc(C)c(S(=O)(=O)N(CCCCCN)OCCCN)c(C)c1 = 16.8 µM (inactive)
COc1cc(/C=C/c2csnn2)cc(OC)c1OC = > 100 µM (inactive)
COc1ccc2c(c1)c1c3c(ccc4ncn2c43)N(CCN(C)C)CCN=1 = 0.176 µM (active)
O=C(O)C1C2c3ccccc3C(c3ccccc32)C1C(=O)NCC1CC1 (stereo not given) = 40.2 µM (inactive)
CCOC(=O)c1cc(C2CCN(c3ccccc3)C2=O)c(C(=O)/C=C(/C)O)[nH]1 (stereo not given) = > 100 µM (inactive)

Batch: GI50 for all items listed.
1. O=C1c2ccccc2-c2nc(-c3cccc([N+](=O)[O-])c3)nnc21
2. O=c1oc2cccnc2n1CCCCN1CCN(c2ccccc2)CC1

Result:
1: 3.96 µM (inactive); 2: > 100 µM (inactive)

###

Would you mind telling me the reported GI50 of each entry?
# System: SW-620
# Assay details: NCI tumour cell line growth inhibition, 48 h
Activity calls are given as the source filed them. Rule as the data show it: active = GI50 up to about 1.1 µM and inactive = higher.

Illustrative cases are given below, each with its answer.
O=c1c2cc(S(=O)(=O)O)ccc2nc(COc2ccc(Oc3ccc(Cl)cc3Cl)cc2)n1C(=S)Nc1ccc(Cl)cc1 = 20.9 µM (inactive)
C1=CC=C2NCCC/N=C3/C=CC=CC=C3NCCC/N=C\2C=C1 = > 100 µM (inactive)
CCCn1cnc2c(/N=N/O)ncnc21 = > 100 µM (inactive)
O=C(O)CCCNS(=O)(=O)c1ccccc1 = > 100 µM (inactive)
COc1ccc(/C=N/NC(=O)C2=C(N)N(c3ccccc3)C(=C(C#N)C#N)S2)cc1 = > 100 µM (inactive)
CCCCCn1cc2c3c(cccc31)C1C=C(C)CN(C)[C@@H]1C2.Cc1ccc(C(=O)OC(C(=O)O)C(OC(=O)c2ccc(C)cc2)C(=O)O)cc1 (centres undefined) = 4.16 µM (inactive)
C[C@H](NC1=CC(=O)C(N[C@@H](C)[C@H](O)c2ccccc2)=CC1=O)[C@H](O)c1ccccc1 = > 100 µM (inactive)
Cc1ncc([N+](=O)[O-])n1CCNCCCCn1ccnc1[N+](=O)[O-] = > 100 µM (inactive)

Ask: Which GI50 value is on record for Fc1cc2nc3n(c2cc1F)C(c1c(F)cccc1F)SC3 (centres undefined) ?
Result: 45 µM (inactive)

Value source: ChEMBL document CHEMBL1201862
